The values you see were collected from ChEMBL document CHEMBL5291721.

For each entry below, report its AC50 value.
target: Alpha-2A adrenergic receptor (Homo sapiens); type: functional, cell-based; also: assay procedure not described here
Sequence (P08913 whole entry): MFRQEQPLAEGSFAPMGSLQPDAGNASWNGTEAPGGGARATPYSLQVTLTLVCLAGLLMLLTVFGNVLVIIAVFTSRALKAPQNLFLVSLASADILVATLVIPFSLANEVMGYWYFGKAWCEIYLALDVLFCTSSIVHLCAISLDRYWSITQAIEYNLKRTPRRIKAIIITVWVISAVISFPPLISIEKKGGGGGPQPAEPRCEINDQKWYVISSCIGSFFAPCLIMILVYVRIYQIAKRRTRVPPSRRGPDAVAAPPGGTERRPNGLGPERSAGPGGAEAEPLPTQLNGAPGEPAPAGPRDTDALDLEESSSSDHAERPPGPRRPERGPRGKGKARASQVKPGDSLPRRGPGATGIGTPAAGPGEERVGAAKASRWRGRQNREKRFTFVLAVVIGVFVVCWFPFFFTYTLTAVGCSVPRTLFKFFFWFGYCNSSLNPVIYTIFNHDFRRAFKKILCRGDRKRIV

Tell me its AC50 given CC(=O)OCC(=O)[C@@]1(O)[C@H](C)C[C@H]2[C@@H]3CCC4=CC(=O)C=C[C@]4(C)[C@@]3(F)[C@@H](O)C[C@@]21C [DEXAMETHASONE ACETATE] as the entry.
> 10 µM

Tell me its AC50 given C[N@+]1(CCF)[C@@H]2CC[C@H]1C[C@@H](OC(=O)C(O)(c1ccccc1)c1ccccc1)C2 as the entry.
> 30 µM

Tell me its AC50 given CC(=O)SC[C@@H](C)C(=O)N1CCC[C@H]1C(=O)N[C@@H](Cc1ccccc1)C(=O)O as the entry.
> 30 µM

Tell me its AC50 given CC(C)(C)C(=O)OCC(=O)[C@H]1CC[C@H]2[C@@H]3CCC4=CC(=O)CC[C@]4(C)[C@H]3CC[C@]12C [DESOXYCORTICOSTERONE PIVALATE] as the entry.
> 10 µM

Tell me its AC50 given CC(N)C(O)c1ccccc1 (stereo not drawn) as the entry.
> 10 µM

Tell me its AC50 given OC1(c2ccc(Cl)cc2)c2ccccc2C2=NCCN21 (stereo not drawn) as the entry.
> 30 µM

Tell me its AC50 given Clc1ccc(C(Cn2ccnc2)OCc2ccsc2Cl)c(Cl)c1 (stereo not drawn) as the entry.
> 30 µM

Tell me its AC50 given CC(C(=O)O)c1ccc2c(c1)[nH]c1ccc(Cl)cc12 (stereo not drawn) as the entry.
> 10 µM

* * *

readout.kind: AC50

State AC50 (Muscarinic acetylcholine receptor M3 (Homo sapiens)) of CCC(COC(=O)c1cc(OC)c(OC)c(OC)c1)(c1ccccc1)N(C)C (stereo not drawn) .
> 30 µM

State AC50 (Muscarinic acetylcholine receptor M3 (Homo sapiens)) of CCCN[C@H]1CCc2nc(N)sc2C1 [PRAMIPEXOLE] .
> 30 µM

State AC50 (Muscarinic acetylcholine receptor M3 (Homo sapiens)) of CCCCCCCCCCCCCCCCCCCCCC(=O)Nc1ccn([C@@H]2O[C@H](CO)[C@@H](O)[C@@H]2O)c(=O)n1 .
> 30 µM

* * *

molecular target: Voltage-gated inwardly rectifying potassium channel KCNH2 (Homo sapiens, UniProt Q12809); assay type: functional; also: assay procedure not described here
Sequence (Q12809 whole entry): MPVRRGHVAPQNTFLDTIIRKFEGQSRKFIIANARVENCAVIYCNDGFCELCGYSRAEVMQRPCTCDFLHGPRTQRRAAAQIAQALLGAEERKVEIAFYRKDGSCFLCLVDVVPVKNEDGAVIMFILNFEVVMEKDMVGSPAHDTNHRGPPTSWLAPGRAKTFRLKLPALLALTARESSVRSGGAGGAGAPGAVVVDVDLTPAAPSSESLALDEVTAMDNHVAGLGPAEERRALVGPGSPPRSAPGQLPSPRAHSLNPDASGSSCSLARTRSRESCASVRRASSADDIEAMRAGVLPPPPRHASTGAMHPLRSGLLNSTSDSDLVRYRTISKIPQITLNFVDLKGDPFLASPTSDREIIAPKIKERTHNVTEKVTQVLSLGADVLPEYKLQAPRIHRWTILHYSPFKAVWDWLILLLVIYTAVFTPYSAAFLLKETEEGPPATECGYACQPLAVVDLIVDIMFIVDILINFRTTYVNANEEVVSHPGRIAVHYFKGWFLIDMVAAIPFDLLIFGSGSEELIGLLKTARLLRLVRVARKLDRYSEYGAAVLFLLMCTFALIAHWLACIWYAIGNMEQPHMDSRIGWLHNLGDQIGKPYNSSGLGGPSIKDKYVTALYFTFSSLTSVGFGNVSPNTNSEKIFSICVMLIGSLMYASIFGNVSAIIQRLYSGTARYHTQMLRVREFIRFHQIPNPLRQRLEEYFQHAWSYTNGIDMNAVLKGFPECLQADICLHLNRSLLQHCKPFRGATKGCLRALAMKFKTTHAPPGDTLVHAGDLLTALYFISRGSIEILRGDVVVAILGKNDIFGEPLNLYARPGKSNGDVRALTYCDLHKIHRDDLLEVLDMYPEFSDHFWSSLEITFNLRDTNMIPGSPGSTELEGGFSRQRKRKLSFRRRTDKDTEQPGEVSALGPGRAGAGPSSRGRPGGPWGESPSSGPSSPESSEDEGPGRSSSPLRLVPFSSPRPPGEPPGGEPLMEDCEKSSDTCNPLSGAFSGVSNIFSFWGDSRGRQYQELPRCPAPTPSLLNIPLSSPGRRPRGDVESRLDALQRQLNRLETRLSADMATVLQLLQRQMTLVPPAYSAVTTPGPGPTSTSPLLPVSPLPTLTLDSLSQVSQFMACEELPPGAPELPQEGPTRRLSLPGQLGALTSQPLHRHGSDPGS
For each entry below, report its AC50 value.

Tell me its AC50 given C[C@H](Cc1ccc(O)c(O)c1)[C@@H](C)Cc1ccc(O)c(O)c1 [MASOPROCOL] as the entry.
> 30 µM

Tell me its AC50 given COC(=O)c1ccc(O)cc1 [METHYLPARABEN] as the entry.
> 30 µM

Tell me its AC50 given Cc1onc(-c2ccccc2)c1-c1ccc(S(N)(=O)=O)cc1 [VALDECOXIB] as the entry.
> 30 µM

Tell me its AC50 given CN1CCN(C2=Nc3ccccc3Oc3ccc(Cl)cc32)CC1 [LOXAPINE] as the entry.
10.6 µM

Tell me its AC50 given CN(C)CCc1c[nH]c2ccc(Cn3cncn3)cc12 [RIZATRIPTAN] as the entry.
> 30 µM

Tell me its AC50 given O=[N+]([O-])c1ccc(O)c2ncccc12 [NITROXOLINE] as the entry.
28 µM

Tell me its AC50 given CCCCCCCCCCCCCCCCCCCCCC(=O)Nc1ccn([C@@H]2O[C@H](CO)[C@@H](O)[C@@H]2O)c(=O)n1 [ENOCITABINE] as the entry.
> 30 µM

Tell me its AC50 given N#Cc1ccc2c(c1)N(CCCN1CCC(O)CC1)c1ccccc1S2 [PERICIAZINE] as the entry.
5.82 µM

Tell me its AC50 given CCOC(=O)C1=C[C@@H](OC(CC)CC)[C@H](NC(C)=O)[C@@H](N)C1 [OSELTAMIVIR] as the entry.
> 30 µM

Tell me its AC50 given CC1(C)S[C@@H]2[C@H](NC(=O)[C@H](N)c3ccccc3)C(=O)N2[C@H]1C(=O)OCOC(=O)[C@@H]1N2C(=O)C[C@H]2S(=O)(=O)C1(C)C [SULTAMICILLIN] as the entry.
> 30 µM

* * *

target: Histamine H2 receptor (Homo sapiens); assay type: functional, cell-based; also: assay procedure not described here
Sequence (P25021 whole entry): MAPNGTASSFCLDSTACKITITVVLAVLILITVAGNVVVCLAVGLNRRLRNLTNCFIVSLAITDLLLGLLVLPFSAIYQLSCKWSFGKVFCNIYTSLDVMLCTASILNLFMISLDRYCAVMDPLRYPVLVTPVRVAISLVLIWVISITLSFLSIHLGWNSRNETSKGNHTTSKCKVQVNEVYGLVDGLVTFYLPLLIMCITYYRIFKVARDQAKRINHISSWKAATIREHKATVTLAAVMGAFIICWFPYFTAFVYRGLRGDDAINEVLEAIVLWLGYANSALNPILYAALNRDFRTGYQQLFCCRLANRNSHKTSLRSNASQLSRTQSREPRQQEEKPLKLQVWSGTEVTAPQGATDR
For each entry below, report its AC50 value.

Tell me its AC50 given C[C@]12CCC(=O)C(O)=C1CC[C@@H]1[C@@H]2CC[C@]2(C)C(=O)CC[C@@H]12 as the entry.
> 30 µM

Tell me its AC50 given Oc1ccc2c(c1)CC[C@H](c1ccccc1)[C@@H]2c1ccc(OCCN2CCCC2)cc1 as the entry.
> 30 µM

Tell me its AC50 given COc1ccc(CC2c3cc(OC)c(OC)cc3CC[N+]2(C)CCC(=O)OCCCCCOC(=O)CC[N+]2(C)CCc3cc(OC)c(OC)cc3C2Cc2ccc(OC)c(OC)c2)cc1OC (centres undefined) as the entry.
> 30 µM

Tell me its AC50 given Nc1ccc(S(=O)(=O)Nc2nccs2)cc1 as the entry.
> 10 µM

* * *

biological target: Neuropeptide Y receptor type 1 (Homo sapiens, UniProt P25929); conditions: read-out: AC50; also: assay procedure not described here
Sequence (P25929 whole entry): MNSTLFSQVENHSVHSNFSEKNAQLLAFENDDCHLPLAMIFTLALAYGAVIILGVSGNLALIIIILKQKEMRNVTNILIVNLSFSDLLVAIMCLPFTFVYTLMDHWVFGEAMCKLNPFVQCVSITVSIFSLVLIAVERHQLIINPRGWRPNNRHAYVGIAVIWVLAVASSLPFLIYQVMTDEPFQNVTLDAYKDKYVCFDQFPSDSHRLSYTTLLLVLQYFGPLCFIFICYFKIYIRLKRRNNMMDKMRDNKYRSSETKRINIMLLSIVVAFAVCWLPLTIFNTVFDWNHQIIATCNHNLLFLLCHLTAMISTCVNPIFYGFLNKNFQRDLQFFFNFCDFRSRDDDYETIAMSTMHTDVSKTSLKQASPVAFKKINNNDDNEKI
For each entry below, report its AC50 value.

Tell me its AC50 given CC(C)c1nc(N(C)S(C)(=O)=O)nc(-c2ccc(F)cc2)c1/C=C/[C@@H](O)C[C@@H](O)CC(=O)O as the entry.
> 30 µM

Tell me its AC50 given CNC1=Nc2ccc(Cl)cc2C(c2ccccc2)=[N+]([O-])C1 [CHLORDIAZEPOXIDE] as the entry.
> 30 µM

Tell me its AC50 given C/N=C(\NC)NCc1ccccc1 as the entry.
> 30 µM

Tell me its AC50 given CC(C)N(CCC(C(N)=O)(c1ccccc1)c1ccccn1)C(C)C (stereo not drawn) [DISOPYRAMIDE] as the entry.
> 30 µM

Tell me its AC50 given CN1C(C(=O)Nc2ccccn2)=C(O)c2ccccc2S1(=O)=O as the entry.
> 10 µM

Tell me its AC50 given Cc1onc(-c2ccccc2)c1-c1ccc(S(N)(=O)=O)cc1 as the entry.
> 30 µM

Tell me its AC50 given COc1ccccc1Oc1c(NS(=O)(=O)c2ccc(C(C)(C)C)cc2)nc(-c2ncccn2)nc1OCCO as the entry.
> 30 µM

Tell me its AC50 given C[C@@H](NCCCc1cccc(C(F)(F)F)c1)c1cccc2ccccc12 as the entry.
> 10 µM

Tell me its AC50 given CCCN(CCC)C(=O)Cc1c(-c2ccc(Cl)cc2)nc2ccc(Cl)cn12 as the entry.
> 30 µM

Tell me its AC50 given C/C(=C\C(=O)OCCCCCCCCC(=O)O)C[C@@H]1OC[C@H](C[C@@H]2O[C@H]2[C@@H](C)[C@H](C)O)[C@@H](O)[C@H]1O as the entry.
> 10 µM

Tell me its AC50 given O=C1CN=C(c2ccccn2)c2cc(Br)ccc2N1 as the entry.
> 10 µM

Tell me its AC50 given CC(C)Cc1ccc(C(C)C(=O)O)cc1 (stereo not drawn) as the entry.
> 30 µM

Tell me its AC50 given O=C1CN(/N=C/c2ccc(-c3ccc([N+](=O)[O-])cc3)o2)C(O)=N1 as the entry.
> 10 µM

Tell me its AC50 given Nc1ccc(S(=O)(=O)Nc2nccs2)cc1 as the entry.
> 30 µM

Tell me its AC50 given NC1CCN(c2nc3c(cc2F)c(=O)c(C(=O)O)cn3-c2ccc(F)cc2F)C1 (stereo not drawn) as the entry.
> 30 µM

Tell me its AC50 given CCC(C)C(CC)C(N)=O (stereo not drawn) [VALNOCTAMIDE] as the entry.
> 30 µM

Tell me its AC50 given Oc1ccc2c(c1)[C@@]13CCCC[C@@]1(O)[C@@H](C2)N(CC1CCC1)CC3 as the entry.
> 30 µM

Tell me its AC50 given CC(C)[C@H](N)C(=O)OCC(CO)OCn1cnc2c(=O)nc(N)[nH]c21 (stereo partly drawn) as the entry.
> 30 µM

* * *

AC50, Muscarinic acetylcholine receptor M2 (Homo sapiens), per-entry values.

Tell me its AC50 given CCOC(=O)N1CSC[C@H]1C(=O)O as the entry.
> 30 µM

Tell me its AC50 given c1ccc2c(c1)CCc1ccccc1N2C1CN2CCC1CC2 (centres undefined) as the entry.
0.0329 µM

Tell me its AC50 given CC1=C(/C=C/C(C)=C/C=C/C(C)=C/C(=O)O)C(C)(C)CCC1 as the entry.
> 30 µM

Tell me its AC50 given CC(CCc1ccccc1)NCC(O)c1ccc(O)c(C(N)=O)c1 (centres undefined) as the entry.
> 30 µM

Tell me its AC50 given CCc1nc(C(N)=O)c(Nc2ccc(N3CCC(N4CCN(C)CC4)CC3)c(OC)c2)nc1NC1CCOCC1 as the entry.
16.4 µM

Tell me its AC50 given CC(C)OC(=O)CCC/C=C\C[C@@H]1[C@@H](/C=C/C(F)(F)COc2ccccc2)[C@H](O)C[C@@H]1O as the entry.
> 30 µM

Tell me its AC50 given O=C(O)CCCCC1CCSS1 (centres undefined) as the entry.
> 30 µM

Tell me its AC50 given CCCc1nc(C(C)(C)O)c(C(=O)O)n1Cc1ccc(-c2ccccc2-c2nnn[nH]2)cc1 as the entry.
> 30 µM

Tell me its AC50 given CC1=CCC(C(C)(C)O)CC1O (centres undefined) as the entry.
> 30 µM
